target: CDK4 (Homo sapiens, UniProt P11802+Q16531); assay: CDK4 percentage degradation in Calu-1 cells (Table 6); type: cell-based; set-up: Cells that express cyclin D1-3 and CDK4/6 proteins were treated with heterobifunctional compounds; endogenous in cells; host or cells: Calu-1; conditions: 40 nM, 16 hours
Sequence (P11802 2-303 limits assumed): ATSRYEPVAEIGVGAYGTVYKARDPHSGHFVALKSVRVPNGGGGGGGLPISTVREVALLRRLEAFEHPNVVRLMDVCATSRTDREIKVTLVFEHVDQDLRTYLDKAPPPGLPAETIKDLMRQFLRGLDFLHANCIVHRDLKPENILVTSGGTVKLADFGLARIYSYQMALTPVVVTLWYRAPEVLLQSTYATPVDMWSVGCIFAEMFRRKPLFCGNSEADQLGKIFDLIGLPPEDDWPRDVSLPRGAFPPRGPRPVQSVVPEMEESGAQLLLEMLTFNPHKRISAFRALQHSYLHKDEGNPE
Sequence (P24385 whole entry partner): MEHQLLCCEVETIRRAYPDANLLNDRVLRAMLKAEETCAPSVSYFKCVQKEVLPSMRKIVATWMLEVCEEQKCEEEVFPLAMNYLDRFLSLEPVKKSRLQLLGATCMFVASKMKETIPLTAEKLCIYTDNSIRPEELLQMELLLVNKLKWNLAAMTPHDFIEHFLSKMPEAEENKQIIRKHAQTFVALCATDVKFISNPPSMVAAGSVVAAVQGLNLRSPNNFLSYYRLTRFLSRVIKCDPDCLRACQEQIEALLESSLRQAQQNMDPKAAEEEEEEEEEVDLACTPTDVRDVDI
Sequence (Q16531 2-1140 limits assumed): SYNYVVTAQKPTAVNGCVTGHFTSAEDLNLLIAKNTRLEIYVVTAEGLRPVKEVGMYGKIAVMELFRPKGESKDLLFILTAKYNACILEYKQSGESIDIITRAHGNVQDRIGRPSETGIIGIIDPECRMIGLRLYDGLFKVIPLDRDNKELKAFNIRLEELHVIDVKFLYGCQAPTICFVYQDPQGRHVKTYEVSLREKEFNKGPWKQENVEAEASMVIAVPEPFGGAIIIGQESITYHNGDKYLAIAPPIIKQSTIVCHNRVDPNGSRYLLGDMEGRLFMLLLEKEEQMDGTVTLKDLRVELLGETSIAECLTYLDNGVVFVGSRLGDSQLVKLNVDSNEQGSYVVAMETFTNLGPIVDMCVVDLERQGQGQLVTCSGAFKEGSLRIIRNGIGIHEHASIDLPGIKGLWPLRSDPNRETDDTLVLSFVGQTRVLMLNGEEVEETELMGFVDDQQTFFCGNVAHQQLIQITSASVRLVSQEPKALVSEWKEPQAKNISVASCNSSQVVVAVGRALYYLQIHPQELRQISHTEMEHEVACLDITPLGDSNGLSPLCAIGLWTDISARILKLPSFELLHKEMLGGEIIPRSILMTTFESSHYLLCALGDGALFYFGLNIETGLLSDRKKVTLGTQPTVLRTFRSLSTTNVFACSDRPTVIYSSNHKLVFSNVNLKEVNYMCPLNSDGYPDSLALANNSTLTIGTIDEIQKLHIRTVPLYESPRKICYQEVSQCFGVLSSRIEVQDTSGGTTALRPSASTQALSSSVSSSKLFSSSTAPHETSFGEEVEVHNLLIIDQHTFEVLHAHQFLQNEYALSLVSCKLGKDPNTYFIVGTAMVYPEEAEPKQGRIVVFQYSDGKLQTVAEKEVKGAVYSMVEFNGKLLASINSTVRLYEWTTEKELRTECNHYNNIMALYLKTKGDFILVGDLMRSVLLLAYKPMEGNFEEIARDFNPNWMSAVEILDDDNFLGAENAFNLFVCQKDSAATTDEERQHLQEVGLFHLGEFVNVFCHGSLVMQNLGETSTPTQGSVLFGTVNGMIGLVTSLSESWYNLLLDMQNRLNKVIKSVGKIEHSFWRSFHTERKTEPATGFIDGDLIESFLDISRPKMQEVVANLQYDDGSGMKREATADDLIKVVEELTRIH
outcome-measure: inhibition at 0.04 µM

Example entries begin here.
CNc1ccc(C(=O)Nc2ccc(N(C)C)nn2)c(NC2CC(OCCC(=O)N3CCN(c4ccc(Nc5ncc6c(C)c(C(C)=O)c(=O)n(C7CCCC7)c6n5)nc4)CC3)C2)n1 (stereo not drawn) [CPD-178]: 50 to 80%
CNc1ccc(C(=O)Nc2ccc(N(C)C)nn2)c(NCCCCCNCCN2CCN(c3ccc(Nc4ncc5c(C)c(C(C)=O)c(=O)n(C6CCCC6)c5n4)nc3)CC2)n1 [CPD-21]: 50 to 80%

Next, consider the following compound.
[in] Reported inhibition at 0.04 µM for CC(=O)c1c(C)c2cnc(Nc3ccc(N4CCN(CC(=O)NCCCNc5nc(C)ccc5C(=O)Nc5nc(C)c(C)s5)CC4)cn3)nc2n(C2CCCC2)c1=O [CPD-1] : what is it?
[out] < 30%
